From: ChEMBL document CHEMBL2040716

tested on: Leishmania donovani; experiment: Antileishmanial activity against Leishmania donovani MHOM/IN/00/DEVI amastigotes infected in mouse J774A.1 cells after 120 hrs by Giemsa staining-based microscopic analysis; details: J774.A1, 120 h
recordedMetric: pIC50
Convention used: pIC50 is expressed as -log10 of the molar concentration.

Bench note: what pIC50 did CCCCCCCCCCCCCCCCOP(=O)([O-])OCC[N+](C)(C)C show?
5.17

====

experiment: Cytotoxicity against mouse J774A1 cells after 72 hrs by MTT assay; type: cell-based, J774.A1
Would you kindly list CC50 at 72 h for each of these compounds?
# output: bare number, implied unit µM

Value lookup for CC50 at 72 h; key = C[C@@H]1[C@H](O)[C@@H](C)/C=C/C=C/C=C/C=C/C=C/C=C/C=C/[C@H](O[C@@H]2O[C@H](C)[C@@H](O)[C@H](N)[C@@H]2O)C[C@@H]2O[C@](O)(C[C@@H](O)C[C@@H](O)[C@H](O)CC[C@@H](O)C[C@@H](O)CC(=O)O[C@H]1C)C[C@H](O)[C@H]2C(=O)O
3.1

Reported CC50 at 72 h for O=Cc1ccc2ccccc2n1 : what is it?
28.8

Name the reported CC50 at 72 h value associated with the compound CCCCCCCCCCCCCCCCOP(=O)([O-])OCC[N+](C)(C)C
94.6

Recorded CC50 at 72 h of O=Cc1ccc2c([N+](=O)[O-])cccc2n1 , please.
22.8

I would be grateful if you could share the reported CC50 at 72 h for COc1cccc2c1C(=O)c1c(O)c3c(c(O)c1C2=O)C[C@@](O)(C(=O)CO)C[C@@H]3O[C@H]1C[C@H](N)[C@H](O)[C@H](C)O1 .
0.02
